Hey, just so you know, these numbers are from the OligoGym collection.

Biological target: UBE2M
Experiment: reporter assay of Huesken 2005
Settings: siRNA
Oligonucleotides are written 5' to 3', each unit as a sugar letter and its base; * is a phosphorothioate linkage, no mark a phosphodiester; rarer units and linkages stand in square brackets, end groups in braces. Plain capitals give the bases only. d = 2'-deoxy (DNA); r = 2'-OH (RNA)
Consider the following substances and their measured normalised inhibition (eCFP-eYFP dual reporter) readings.
Only the number, expressed in %, is required.

Previously resolved entries follow.
- SUBSTANCE: "sense rGrGrArCrCrCrArCrUrGrArArCrArArGrGrArGdTdT / antisense rCrUrCrCrUrUrGrUrUrCrArGrUrGrGrGrUrCrCdTdC"
  RESULT_NUMBER: 63.1
- SUBSTANCE: "sense rCrArUrGrCrGrGrGrGrUrGrGrCrUrArCrArUrCdTdT / antisense rGrArUrGrUrArGrCrCrArCrCrCrCrGrCrArUrGdGdA"
  RESULT_NUMBER: 67.7
- SUBSTANCE: "sense rCrUrGrArArCrArArGrGrArGrGrCrCrGrCrArGdTdT / antisense rCrUrGrCrGrGrCrCrUrCrCrUrUrGrUrUrCrArGdTdG"
  RESULT_NUMBER: 68.6
- SUBSTANCE: "sense rArGrCrArGrCrArArGrArArGrGrCrGrUrCrGrGdTdT / antisense rCrCrGrArCrGrCrCrUrUrCrUrUrGrCrUrGrCrUdGdC"
  RESULT_NUMBER: 53
- SUBSTANCE: "sense rGrGrCrCrArGrGrGrUrUrArCrCrCrGrCrArUrGdTdT / antisense rCrArUrGrCrGrGrGrUrArArCrCrCrUrGrGrCrCdCdA"
  RESULT_NUMBER: 73.8

For sense rArGrGrCrCrGrCrArGrArGrGrUrCrCrUrGrCrAdTdT / antisense rUrGrCrArGrGrArCrCrUrCrUrGrCrGrGrCrCrUdCdC on UBE2M, measured normalised inhibition (eCFP-eYFP dual reporter) was 65.4

====

Consider the following substances and their measured normalised inhibition (eCFP-eYFP dual reporter) readings.
Target: UBE2L3
Experiment: reporter assay of Huesken 2005
Details: siRNA
Oligonucleotides are written 5' to 3', each unit as a sugar letter and its base; * is a phosphorothioate linkage, no mark a phosphodiester; rarer units and linkages stand in square brackets, end groups in braces. Plain capitals give the bases only. d = 2'-deoxy (DNA); r = 2'-OH (RNA)
Only the number, expressed in %, is required.

- SUBSTANCE: "sense rUrUrCrArArArCrCrArCrCrGrArArGrArUrCrAdTdT / antisense rUrGrArUrCrUrUrCrGrGrUrGrGrUrUrUrGrArAdTdG"
  MEASUREMENT_TARGET: "UBE2L3"
  UNIT_DESCRIPTOR: "%"
  RESULT_NUMBER: 65.9

get_value(item= sense rCrArGrCrArGrArGrUrArCrCrCrArUrUrCrArAdTdT / antisense rUrUrGrArArUrGrGrGrUrArCrUrCrUrGrCrUrGdGdA , readout=normalised inhibition (eCFP-eYFP dual reporter)) returns 90

get_value(item= sense rUrUrGrArCrUrUrGrGrCrArArGrGrGrCrUrUrAdTdT / antisense rUrArArGrCrCrCrUrUrGrCrCrArArGrUrCrArAdTdA , readout=normalised inhibition (eCFP-eYFP dual reporter)) returns 61.9

====

Molecular target: UBE2H
Assay: reporter assay of Huesken 2005
Details: siRNA
Oligonucleotides are written 5' to 3', each unit as a sugar letter and its base; * is a phosphorothioate linkage, no mark a phosphodiester; rarer units and linkages stand in square brackets, end groups in braces. Plain capitals give the bases only. d = 2'-deoxy (DNA); r = 2'-OH (RNA)
MEASUREMENT_LABEL: normalised inhibition (eCFP-eYFP dual reporter) (%)
Only the number, expressed in %, is required.

- SUBSTANCE: "sense rGrGrCrGrCrUrGrArArArGrArArCrArGrGrArAdTdT / antisense rUrUrCrCrUrGrUrUrCrUrUrUrCrArGrCrGrCrCdTdC"
  UNIT_DESCRIPTOR: "%"
  RESULT_NUMBER: 98.5
- SUBSTANCE: "sense rCrGrUrCrArGrGrArArCrUrGrUrGrUrGrUrCrUdTdT / antisense rArGrArCrArCrArCrArGrUrUrCrCrUrGrArCrGdCdT"
  UNIT_DESCRIPTOR: "%"
  RESULT_NUMBER: 99.9
- SUBSTANCE: "sense rUrCrArGrUrUrArUrUrGrGrCrCrUrArUrCrCrUdTdT / antisense rArGrGrArUrArGrGrCrCrArArUrArArCrUrGrAdGdG"
  UNIT_DESCRIPTOR: "%"
  RESULT_NUMBER: 66.6

get_value(item= sense rUrArUrCrCrUrArArCrCrCrCrArUrArGrArUrCdTdT / antisense rGrArUrCrUrArUrGrGrGrGrUrUrArGrGrArUrAdGdG , readout=normalised inhibition (eCFP-eYFP dual reporter)) returns 50.2

====

Target: RHOQ
Test: reporter assay of Huesken 2005
Conditions: siRNA
Oligonucleotides are written 5' to 3', each unit as a sugar letter and its base; * is a phosphorothioate linkage, no mark a phosphodiester; rarer units and linkages stand in square brackets, end groups in braces. Plain capitals give the bases only. d = 2'-deoxy (DNA); r = 2'-OH (RNA)
Label rule, in plain words: normalised inhibition (eCFP-eYFP dual reporter) of 80% and up is condition met, under 80% is condition not met.

Consider the following illustrative entries.
- SUBSTANCE: "sense rUrGrArCrUrUrGrArGrCrUrUrArUrArGrCrUrAdTdT / antisense rUrArGrCrUrArUrArArGrCrUrCrArArGrUrCrAdTdG"
  MEASUREMENT_TARGET: "RHOQ"
  LABEL_CLASS: "condition met"
- SUBSTANCE: "sense rUrArUrGrCrCrArUrGrCrArUrCrArGrArUrArAdTdT / antisense rUrUrArUrCrUrGrArUrGrCrArUrGrGrCrArUrAdTdG"
  MEASUREMENT_TARGET: "RHOQ"
  LABEL_CLASS: "condition not met"
- SUBSTANCE: "sense rUrGrCrArUrUrUrUrArGrArGrArArArCrArArUdTdT / antisense rArUrUrGrUrUrUrCrUrCrUrArArArArUrGrCrAdTdT"
  MEASUREMENT_TARGET: "RHOQ"
  LABEL_CLASS: "condition met"

## Input # bool: normalised inhibition (eCFP-eYFP dual reporter) of sense rGrArGrArGrUrCrUrArCrUrGrGrArUrGrArCrUdTdT / antisense rArGrUrCrArUrCrCrArGrUrArGrArCrUrCrUrCdTdC >= 80%
## Output condition not met

## Input # bool: normalised inhibition (eCFP-eYFP dual reporter) of sense rUrArUrArGrCrUrArUrGrUrCrUrArCrUrGrCrAdTdT / antisense rUrGrCrArGrUrArGrArCrArUrArGrCrUrArUrAdAdG >= 80%
## Output condition not met

## Input # bool: normalised inhibition (eCFP-eYFP dual reporter) of sense rUrArArArGrUrArUrCrArUrGrGrCrCrUrUrArUdTdT / antisense rArUrArArGrGrCrCrArUrGrArUrArCrUrUrUrAdAdT >= 80%
## Output condition not met

====

Target: UBE2V1
Assay: reporter assay of Huesken 2005
Conditions: siRNA
Oligonucleotides are written 5' to 3', each unit as a sugar letter and its base; * is a phosphorothioate linkage, no mark a phosphodiester; rarer units and linkages stand in square brackets, end groups in braces. Plain capitals give the bases only. d = 2'-deoxy (DNA); r = 2'-OH (RNA)
MEASUREMENT_LABEL: normalised inhibition (eCFP-eYFP dual reporter) (%)
Only the number, expressed in %, is required.

Previously resolved entries follow.
- SUBSTANCE: "sense rUrArGrCrArArArArUrGrGrCrArGrArArUrUrCdTdT / antisense rGrArArUrUrCrUrGrCrCrArUrUrUrUrGrCrUrAdGdC"
  RESULT_NUMBER: 63
- SUBSTANCE: "sense rUrGrGrGrCrCrUrCrCrArArGrArArCrArArUrUdTdT / antisense rArArUrUrGrUrUrCrUrUrGrGrArGrGrCrCrCrAdAdT"
  RESULT_NUMBER: 57.1
- SUBSTANCE: "sense rArGrCrUrGrGrGrGrUrCrUrArGrArArGrArUrGdTdT / antisense rCrArUrCrUrUrCrUrArGrArCrCrCrCrArGrCrUdAdA"
  RESULT_NUMBER: 73
- SUBSTANCE: "sense rGrArArArArUrUrUrCrArCrUrGrCrArArArGrGdTdT / antisense rCrCrUrUrUrGrCrArGrUrGrArArArUrUrUrUrCdTdA"
  RESULT_NUMBER: 83.7
- SUBSTANCE: "sense rUrCrUrArGrArArGrArUrGrArCrGrArArGrArCdTdT / antisense rGrUrCrUrUrCrGrUrCrArUrCrUrUrCrUrArGrAdCdC"
  RESULT_NUMBER: 58

get_value(item= sense rArGrUrCrCrCrUrCrGrCrArArUrUrUrCrCrGrAdTdT / antisense rUrCrGrGrArArArUrUrGrCrGrArGrGrGrArCrUdTdT , readout=normalised inhibition (eCFP-eYFP dual reporter)) returns 96
